Data origin, for the record: ChEMBL document CHEMBL3739335

- Assay Explanation: Chemical stability of the compound in buffer assessed as compound remaining at pH 6 after 8 hrs by HPLC analysis
- Assay type: physicochemical
- Experimental Setup: read-out: Stability
Measured Metric: remaining at 8 h (%)
Give bare numbers, in %.

Look up remaining at 8 h for this molecule: CC(C)[C@]12O[C@H]1[C@@H]1O[C@]13[C@]1(O[C@H]1C[C@H]1C4=C(CC[C@@]13C)C(=O)OC4)[C@@H]2OCOP(=O)([O-])[O-].[Na+].[Na+] [MINNELIDE]
100

###

- Assay Explanation: Chemical stability of the compound in buffer assessed as compound remaining at pH 1 after 8 hrs by HPLC analysis
- Assay type: physicochemical
- Experimental Setup: read-out: Stability
Measured Metric: remaining at 8 h (%)
Answers are plain numbers, in %.

I have this compound here, CC(C)[C@]12O[C@H]1[C@@H]1O[C@]13[C@]1(O[C@H]1C[C@H]1C4=C(CC[C@@]13C)C(=O)OC4)[C@@H]2OCOP(=O)([O-])[O-].[Na+].[Na+] [MINNELIDE] , and I need its recorded remaining at 8 h.
39
